system: Calu-3; test: cell viability relative to DMSO; higher = less toxic; details: 72 h; 100 nM
recorded metric: cell viability (%)
A number alone suffices; assume %.

Query :: Entry `CC(=O)O[C@H]1C[C@@H]2CC[C@@H]3[C@H](CC[C@@]4(C)[C@H]3C[C@H](N3CC[N+](C)(C)CC3)[C@@H]4OC(C)=O)[C@@]2(C)C[C@@H]1N1CC[N+](C)(C)CC1` has what cell viability?
Result :: 90.2

Query :: Entry `CCn1c(=O)c2c(nc(/C=C/c3ccc(OC)c(OC)c3)n2C)n(CC)c1=O` has what cell viability?
Result :: 94.4

Query :: Entry `CS(=O)(=O)c1ccc(-c2cc(Br)sc2-c2ccc(F)cc2)cc1` has what cell viability?
Result :: 103

Query :: Entry `Cc1nn(C)c2nc(NNC(=O)Nc3cc(Cl)nc(Cl)c3)cc(C(C)C)c12` has what cell viability?
Result :: 97.5

Query :: Entry `c1ccc2c(c1)sc1ccccc12` has what cell viability?
Result :: 92.1

Query :: Entry `C[C@@H](NC(=O)CCc1nc2ccccc2c(=O)[nH]1)c1ccccc1` has what cell viability?
Result :: 92

Query :: Entry C#CCC(Cc1cnc2nc(N)nc(N)c2n1)c1ccc(C(=O)N[C@@H](CCC(=O)O)C(=O)O)cc1 (stereo partly drawn) [pralatrexate] has what cell viability?
Result :: 91.4

Query :: Entry `NC(=O)Nc1cc(-c2cccc(F)c2)sc1C(=O)N[C@H]1CCCNC1` has what cell viability?
Result :: 94.8
